- subject of test: Sterol O-acyltransferase 1 (Homo sapiens) (UniProt P35610)
- Sequence (whole entry): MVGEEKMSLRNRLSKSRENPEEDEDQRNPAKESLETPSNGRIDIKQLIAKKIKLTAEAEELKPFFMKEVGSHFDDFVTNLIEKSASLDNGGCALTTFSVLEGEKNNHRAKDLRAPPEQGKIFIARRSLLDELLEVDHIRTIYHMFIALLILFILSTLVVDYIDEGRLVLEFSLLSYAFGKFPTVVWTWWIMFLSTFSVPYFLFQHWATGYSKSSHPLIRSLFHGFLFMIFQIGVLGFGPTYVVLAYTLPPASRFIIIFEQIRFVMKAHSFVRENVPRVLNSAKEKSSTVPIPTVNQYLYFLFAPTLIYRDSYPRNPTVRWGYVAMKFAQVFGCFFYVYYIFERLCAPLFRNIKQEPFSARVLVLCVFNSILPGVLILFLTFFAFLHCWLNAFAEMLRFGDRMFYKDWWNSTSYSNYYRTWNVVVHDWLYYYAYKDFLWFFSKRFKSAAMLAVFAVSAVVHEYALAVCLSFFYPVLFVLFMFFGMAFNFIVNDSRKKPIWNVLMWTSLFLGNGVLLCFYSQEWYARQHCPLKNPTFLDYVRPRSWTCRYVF
- protocol: Inhibition of ACAT at 0.2 mg/mL
Activity calls are given as the source filed them. The calls are words filed in the database; no cut-off is given here.
measured endpoint: Activity

Can you look up the measured Activity of C[C@@H]1CC[C@]2(C(=O)O[C@@H]3O[C@H](CO)[C@@H](O)[C@H](O)[C@H]3O)CC[C@]3(C)C(=CC[C@@H]4[C@@]5(C)CC[C@H](O[C@H]6O[C@@H](C(=O)O)[C@H](O)[C@@H](O)[C@@H]6O)C(C)(C)[C@@H]5CC[C@]43C)[C@@H]2[C@]1(C)O for me?
inactive

Look up Activity: C[C@@H]1O[C@@H](O[C@H]2[C@H](O[C@H]3CC[C@]4(C)[C@H]5CC=C6[C@H]7[C@]8(CC[C@](C)(OC8=O)[C@@]7(C)O)CC[C@@]6(C)[C@]5(C)CC[C@H]4C3(C)C)OC[C@H](O)[C@@H]2O[C@@H]2O[C@H](CO)[C@@H](O)[C@H](O)[C@H]2O[C@@H]2O[C@H](CO)[C@@H](O)[C@H](O)[C@H]2O)[C@H](O)[C@H](O)[C@H]1O
inactive

What Activity value was documented for this compound, C[C@@H]1O[C@@H](O[C@H]2[C@H](O[C@H]3CC[C@]4(C)[C@H]5CC=C6[C@@H]7CC(C)(C)CC[C@]7(C(=O)O[C@@H]7O[C@H](CO)[C@@H](O)[C@H](O)[C@H]7O)CC[C@@]6(C)[C@]5(C)CC[C@H]4C3(C)C)OC[C@H](O)[C@@H]2O[C@@H]2O[C@H](CO)[C@@H](O)[C@H](O)[C@H]2O)[C@H](O)[C@H](O)[C@H]1O ?
inactive

* * *

- subject of test: Sterol O-acyltransferase 1 (Homo sapiens)
- protocol: Inhibition of ACAT at 1 mg/mL
measured endpoint: inhibition (%)

// map C[C@@H]1O[C@@H](O[C@H]2[C@H](O[C@H]3CC[C@]4(C)[C@H]5CC=C6[C@H]7[C@](C(=O)O[C@@H]8O[C@H](CO)[C@@H](O)[C@H](O)[C@H]8O)(CC[C@@H](C)[C@@]7(C)O)CC[C@@]6(C)[C@]5(C)CC[C@H]4C3(C)C)OC[C@H](O)[C@@H]2O)[C@H](O)[C@H](O)[C@H]1O to recorded inhibition (system: Sterol O-acyltransferase 1 (Homo sapiens))
72.8

(A) C[C@@H]1CC[C@]2(C(=O)O[C@@H]3O[C@H](CO)[C@@H](O)[C@H](O)[C@H]3O)CC[C@]3(C)C(=CC[C@@H]4[C@@]5(C)CC[C@H](O[C@@H]6OC[C@H](O)[C@H](O)[C@H]6O)[C@@](C)(CO)[C@@H]5CC[C@]43C)[C@@H]2[C@]1(C)O
(B) CC1(C)[C@@H](O[C@@H]2O[C@H](CO)[C@@H](O)[C@H](O)[C@H]2O[C@@H]2O[C@H](CO)[C@@H](O)[C@H](O)[C@H]2O)CC[C@]2(C)[C@H]3C[C@@H](O)C4=C5[C@]6(CC[C@](C)(OC6=O)[C@@]5(C)O)CC[C@@]4(C)[C@]3(C)CC[C@@H]12
Compare the recorded inhibition of A and B ; state which is larger. Please respond with the label that marks your chosen entry.
B
(B: 43%, A: 18.9%)
